Consider the following binders; for each one, report its EC50.
System Tested: HIV-1 integrase (HIV-1)
Method: dissociation of the IN/LEDGF complex, AlphaScreen and immunoprecipitation; partner displaced: LEDGF

State the recorded EC50 for this entry: GTKWLTEVWPL (modifications not checked) [P16] 800 nM

Need EC50, item GTKWLTEWIPLTAEAE (modifications not checked) [PAW] 2000 nM

Any idea what EC50 was measured for GTKWLTEWIPL (modifications not checked) [P24] ? 13000 nM

Report EC50 for KWLTEWIPLTAEAE (modifications not checked) [P26] please. > 50000 nM
